- Tested on: C2C12 cells
- Assay name: Alkaline phosphatase (ALP) activity under TNF-α-induced osteogenic differentiation inhibition, ID model
- Type: cell-based
- Experimental parameters: Mus musculus; C2C12 cells, ID model, TNF-α
- Method: C2C12 cells were kept in DMEM complemented with the 10% fetal dairy serum and 1% penicillin/streptomycin and MC3T3-E1 cells in minimally needed culture medium (MEM, HyClone, GE Healthcare, USA) supplemented with 10% fetal bovine serum and 1% penicillin/streptomycin, were grown individually, and then cultured at 37.0°C, 5% CO2. […] […] was detected by ALP activity via the alkaline phosphatase assay kit followed by the instruction. […]
Listed here: items and their measured EC50.
Reported metric: EC50

>>> result("COc1cc(CCN)c(-c2csc(-c3ccc(O)cc3)n2)cc1OC")
"12.2 µM"
>>> result("O=C1c2ccccc2-c2c1c1ccccc1c(=O)n2NCCO")
"14.7 µM"
